Where do the numbers come from? From patent US8329703B2.

- Tested on: Huh-Luc-Neo cells
- Method: Cell Titer-Glo Cell Viability Assay
- Format: cell-based, human
- Test Conditions: inhibition of cell viability at 50 μM, 2 doses, conditions identical to HCV Replicon RNA Assay
Reported Endpoint: Toxicity % Inhibition at 50 μM (2 doses) (%)
Please respond with the number in % and leave the unit unwritten.

>  <Compound>
Cn1cc(CCC(C)(C)C)c(-c2cc(NC(=O)c3cccc(Cl)c3F)ccc2O)n1 [VQ_34072]

>  <U>
%

>  <Toxicity % Inhibition at 50 μM (2 doses)>
6.2

$$$$
>  <Compound>
Cn1cc(C#CCC2CCCCC2)c(-c2ccccc2O)n1 [VQ_23705]

>  <U>
%

>  <Toxicity % Inhibition at 50 μM (2 doses)>
14.7

$$$$
>  <Compound>
Cc1ccc(O)c(-c2nn(C)cc2C#CC(C)(C)C)c1 [VQ_23310]

>  <U>
%

>  <Toxicity % Inhibition at 50 μM (2 doses)>
7.1

$$$$
>  <Compound>
Cn1cc(C#CC(C)(C)C)c(-c2cc([N+](=O)[O-])ccc2NCc2cc(F)cc(F)c2)n1 [VQ_36659]

>  <U>
%

>  <Toxicity % Inhibition at 50 μM (2 doses)>
21.9

$$$$
>  <Compound>
Cn1cc(C#CC2CC2)c(-c2cc(Br)ccc2O)n1 [VQ_34432]

>  <U>
%

>  <Toxicity % Inhibition at 50 μM (2 doses)>
8.2

$$$$
>  <Compound>
Cn1nc(-c2ccccc2O)c(C#CCCCC#N)c1-c1ccccc1 [VQ_30716]

>  <U>
%

>  <Toxicity % Inhibition at 50 μM (2 doses)>
6.8

$$$$
>  <Compound>
Cn1cc(C#Cc2ccc(N)cc2)c(-c2cc(Cl)ccc2O)n1 [VQ_23720]

>  <U>
%

>  <Toxicity % Inhibition at 50 μM (2 doses)>
32.6

$$$$

Which Toxicity % Inhibition at 50 μM (2 doses) value is on record for Cn1cc(C#CC(C)(C)C)c(-c2cc([N+](=O)[O-])ccc2NCCCNc2ccc([N+](=O)[O-])cc2-c2nn(C)cc2C#CC(C)(C)C)n1 [VQ_36673] ?
19.7
